- assayProcedure: CCTE_Shafer_MEA_acute_interburst_interval_mean: CCTE's Neural Acute Assay for Mean Interburst Interval, Shafer Lab (AID 2284016);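 note: percent change of mean interburst interval versus each well's own pre-dose baseline; curves fitted for decrease in interburst interval relative to DMSO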
Calls of active or inactive are those of the source. Rule for the calls: active = hit-call score of the fitted dose curve at least 0.9, where 1 is the maximum; inactive = score below 0.9.
Outcomes: T (active), F (inactive)

[[record]]
compound = "CC1(C)[C@@H](C=C(Cl)Cl)[C@@H]1C(=O)O[C@@H](C#N)c1ccc(F)c(Oc2ccccc2)c1"
classification = "T"

[[record]]
compound = "COc1ccc(CO)cc1"
classification = "F"

[[record]]
compound = "CP(=O)(O)CCC(N)C(=O)O (stereo not given)"
classification = "F"

[[record]]
compound = "CP(=O)(O)CC[C@H](N)C(=O)O"
classification = "F"

[[record]]
compound = "CC1(C)[C@H](C=C(Cl)Cl)[C@@H]1C(=O)O[C@@H](C#N)c1cccc(Oc2ccccc2)c1"
classification = "T"

